# testMethodNotes: Timed organ biodistribution of [^64Cu]Cu-DOTATATE by ex vivo gamma counting
# Format: in vivo, mice
# measurementConditions: mouse, kidneys, intravenous, 1.85 MBq, total radioactivity; female Apoe^-/- mice 12 weeks on Western Diet, 15 min after injection, median (IQR), N=3-8; read-out: Tissue radioactivity, kidneys
# Protocol: Wild-type and atherosclerotic animals were injected with approximately 1.85 MBq of [^64Cu]Cu-DOTATATE and euthanized at either 1, 5, 15, 30, 60 or 120 min after injection (Supplementary Fig. S1A) to evaluate the tracer’s biodistribution. […] Values were corrected for decay and normalized to tissue weight to express radioactivity concentration as percentage injected dose per gram (%ID/g). […] Plasma (supernatant) and cells (pellet) were gamma counted and expressed as percentage of total activity. […]

>  <compound>
C[C@@H](O)[C@H](NC(=O)[C@@H]1CSSC[C@H](NC(=O)[C@@H](Cc2ccccc2)NC(=O)CN2CCN(CC(=O)O)CCN(CC(=O)O)CCN(CC(=O)O)CC2)C(=O)N[C@@H](Cc2ccc(O)cc2)C(=O)N[C@H](Cc2c[nH]c3ccccc23)C(=O)N[C@@H](CCCCN)C(=O)N[C@@H]([C@@H](C)O)C(=O)N1)C(=O)O [[^64Cu]Cu-DOTATATE, metal not drawn]

>  <tissue uptake at 0.25 h>
13.2 %ID/g

$$$$

====

# testMethodNotes: Timed organ biodistribution of [^64Cu]Cu-DOTATATE by ex vivo gamma counting
# Assay type: in vivo, mice
# measurementConditions: mouse, abdominal aorta, intravenous, 1.85 MBq, total radioactivity; female C57BL/6 mice, 1 min after injection, median (IQR), N=3-7; read-out: Tissue radioactivity, abdominal aorta
quantity: tissue uptake at 1 min

>  <compound>
C[C@@H](O)[C@H](NC(=O)[C@@H]1CSSC[C@H](NC(=O)[C@@H](Cc2ccccc2)NC(=O)CN2CCN(CC(=O)O)CCN(CC(=O)O)CCN(CC(=O)O)CC2)C(=O)N[C@@H](Cc2ccc(O)cc2)C(=O)N[C@H](Cc2c[nH]c3ccccc23)C(=O)N[C@@H](CCCCN)C(=O)N[C@@H]([C@@H](C)O)C(=O)N1)C(=O)O [[^64Cu]Cu-DOTATATE, metal not drawn]

>  <resultValue>
5.1 %ID/g

$$$$

====

# testMethodNotes: Timed organ biodistribution of [^64Cu]Cu-DOTATATE by ex vivo gamma counting
# Format: in vivo, mice
# measurementConditions: mouse, heart, intravenous, 1.85 MBq, total radioactivity; female Apoe^-/- mice 12 weeks on Western Diet, 120 min after injection, median (IQR), N=3-8; read-out: Tissue radioactivity, heart

>  <compound>
C[C@@H](O)[C@H](NC(=O)[C@@H]1CSSC[C@H](NC(=O)[C@@H](Cc2ccccc2)NC(=O)CN2CCN(CC(=O)O)CCN(CC(=O)O)CCN(CC(=O)O)CC2)C(=O)N[C@@H](Cc2ccc(O)cc2)C(=O)N[C@H](Cc2c[nH]c3ccccc23)C(=O)N[C@@H](CCCCN)C(=O)N[C@@H]([C@@H](C)O)C(=O)N1)C(=O)O [[^64Cu]Cu-DOTATATE, metal not drawn]

>  <tissue uptake at 2 h>
1.4 %ID/g

$$$$

====

# testMethodNotes: Organ biodistribution of [^68Ga]Ga-DOTATATE by ex vivo gamma counting
# Assay type: in vivo, New Zealand White rabbits
# measurementConditions: male, New Zealand White, rabbit, large intestine, iv, 190 MBq, total radioactivity, male athero4mo rabbits, 200 min after tracer injection, median (IQR), N = 9; read-out: Tissue radioactivity, large intestine

>  <molecule>
C[C@@H](O)[C@H](NC(=O)[C@@H]1CSSC[C@H](NC(=O)[C@@H](Cc2ccccc2)NC(=O)CN2CCN(CC(=O)O)CCN(CC(=O)O)CCN(CC(=O)O)CC2)C(=O)N[C@@H](Cc2ccc(O)cc2)C(=O)N[C@H](Cc2c[nH]c3ccccc23)C(=O)N[C@@H](CCCCN)C(=O)N[C@@H]([C@@H](C)O)C(=O)N1)C(=O)O [[^68Ga]Ga-DOTATATE, metal not drawn]

>  <tissue uptake at 200 min / %ID/g>
0.01

$$$$
